FYI, the data here is from paper PMC4336329.

target: human ether-à-go-go-related gene (hERG) potassium channel (human); test: primary screen, population patch clamp on CHO cells stably expressing hERG; higher = less effect of the substance;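 further: peak tail current of the secondary pulse compared with the same well before compound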
Sequence (Q12809 whole entry, looked up): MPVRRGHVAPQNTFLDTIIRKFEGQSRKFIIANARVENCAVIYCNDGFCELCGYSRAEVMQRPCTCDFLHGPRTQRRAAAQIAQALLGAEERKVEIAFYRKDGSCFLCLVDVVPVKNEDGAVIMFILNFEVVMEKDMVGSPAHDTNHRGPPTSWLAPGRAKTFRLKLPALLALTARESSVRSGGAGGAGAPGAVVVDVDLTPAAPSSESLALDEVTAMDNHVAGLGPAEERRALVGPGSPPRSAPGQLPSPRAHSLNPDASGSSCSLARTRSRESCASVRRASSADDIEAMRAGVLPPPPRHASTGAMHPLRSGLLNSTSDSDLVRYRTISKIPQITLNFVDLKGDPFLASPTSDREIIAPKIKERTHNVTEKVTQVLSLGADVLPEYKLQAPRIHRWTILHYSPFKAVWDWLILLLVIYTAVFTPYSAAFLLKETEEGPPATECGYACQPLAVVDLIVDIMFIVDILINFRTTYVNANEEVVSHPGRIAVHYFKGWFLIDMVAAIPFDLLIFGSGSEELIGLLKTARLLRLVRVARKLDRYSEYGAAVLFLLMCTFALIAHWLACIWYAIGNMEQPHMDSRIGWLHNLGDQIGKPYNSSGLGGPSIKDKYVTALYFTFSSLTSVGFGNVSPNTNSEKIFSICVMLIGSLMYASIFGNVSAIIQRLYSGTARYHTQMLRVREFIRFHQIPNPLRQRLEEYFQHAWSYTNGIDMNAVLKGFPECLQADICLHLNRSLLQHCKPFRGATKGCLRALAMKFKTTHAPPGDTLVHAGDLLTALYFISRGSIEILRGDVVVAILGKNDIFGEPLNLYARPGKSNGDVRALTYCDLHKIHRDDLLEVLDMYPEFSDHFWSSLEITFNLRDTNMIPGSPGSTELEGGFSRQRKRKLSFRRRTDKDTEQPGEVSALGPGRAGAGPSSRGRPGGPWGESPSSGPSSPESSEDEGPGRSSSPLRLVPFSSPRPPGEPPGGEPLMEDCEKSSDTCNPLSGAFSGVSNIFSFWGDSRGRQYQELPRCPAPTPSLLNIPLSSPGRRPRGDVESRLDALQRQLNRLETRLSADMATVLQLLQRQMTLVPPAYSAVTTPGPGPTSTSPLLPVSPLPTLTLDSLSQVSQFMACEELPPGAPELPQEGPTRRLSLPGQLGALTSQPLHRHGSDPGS
Among all 310,000 compounds or so, about 14,000 (4.5%) showed an effect of 50% or more. Effects have a minus sign here. The sample holds strong results, similar compounds and a random draw of the others, so the mix is not that of the screen.
readout type: hERG current change (%, negative = inhibition) at 10uM (%)

{"molecule": "CCN(CC)CCCN(Cc1cc2cc3c(cc2[nH]c1=O)OCO3)C(=S)Nc1ccccc1", "test value": -45.9}
{"molecule": "CCN(CC)CCCN(Cc1cc2cc3c(cc2[nH]c1=O)OCCO3)C(=O)Nc1ccccc1", "test value": -41.7}
{"molecule": "N#Cc1ccc(S(=O)(=O)N2CCCN(c3nc4ccc(Cl)cc4s3)CC2)cc1", "test value": -70.3}
{"molecule": "CC(CC(=O)N1CCN(c2ccc(C(F)(F)F)cn2)CC1)n1ccnc1 (stereo not drawn)", "test value": -66.2}
{"molecule": "O=S(=O)(c1ccc(Cl)cc1)N1CCCN(c2ccc(C(F)(F)F)cn2)CC1", "test value": -23.3}
{"molecule": "N#Cc1ccc(OCC(=O)N2CCN(c3ccc(C(F)(F)F)cn3)CC2)cc1", "test value": -54.7}
{"molecule": "Cc1ccccc1SCC(=O)N1CCN(c2ccc(C(F)(F)F)cn2)CC1", "test value": -38}
{"molecule": "COC(=O)c1ccc(C)c(NC(=O)CN2C(=O)c3ccccc3S2(=O)=O)c1", "test value": 6.46}
{"molecule": "COc1ccc2cc(CN(C(=O)Nc3ccccc3)C3CCCC3)c(=O)[nH]c2c1", "test value": -60.5}

----------
molecular target: human ether-à-go-go-related gene (hERG) potassium channel (human); assay: primary screen, population patch clamp on CHO cells stably expressing hERG; higher = less effect of the substance;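 further: peak tail current of the secondary pulse compared with the same well before compound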
The campaign covered roughly 310,000 compounds. About 14,000 (4.5%) showed an effect of 50% or more. The effect is printed as a negative number. Only a selection was taken, and strong results are over-represented in it overall.
readout type: hERG current change (%, negative = inhibition) at 10uM (%)

{"molecule": "CCn1c(COc2ccccc2C)nc2ccccc21", "units": "%", "test value": 4.07}
{"molecule": "Cl.O=C(CCN1CCOCC1)c1ccc(Br)cc1", "units": "%", "test value": 25.2}
{"molecule": "Cc1cc([N+](=O)[O-])nn1CC(=O)Nc1c(C)n(C)n(-c2ccccc2)c1=O", "units": "%", "test value": 18.4}
{"molecule": "CC(C)CN1CCN(Cc2cccn2-c2ccc(Cl)cn2)CC1CCO (stereo not drawn)", "units": "%", "test value": -64.6}
{"molecule": "O=C(CSc1nnc(COc2cccc3ccccc23)o1)N1CCN(C(=O)c2ccco2)CC1", "units": "%", "test value": -65.1}
{"molecule": "Cn1c(COc2ccccc2O)[n+](C)c2ccccc21.[Br-]", "units": "%", "test value": 15.8}
{"molecule": "CCCCCCCCCCOC(=O)Cn1c(COc2ccccc2C)[n+](C)c2ccccc21.[Cl-]", "units": "%", "test value": -72.5}
{"molecule": "CC(C)CN1CCN(Cc2c(F)cccc2Cl)CC1CCO (stereo not drawn)", "units": "%", "test value": -10.4}
{"molecule": "COc1ccc(OCCCC(=O)NNC(=O)CCN2CCN(c3ccccc3)CC2)cc1", "units": "%", "test value": 7.89}
{"molecule": "Cc1cc(C)c(S(=O)(=O)c2ccccc2)c(=O)[nH]1", "units": "%", "test value": 20.6}
{"molecule": "Cn1cnnc1SCc1cccc(Br)c1", "units": "%", "test value": 0.347}
{"molecule": "CC(C)CCN1CCN(Cc2ccon2)CC1CCO (stereo not drawn)", "units": "%", "test value": 4.53}
{"molecule": "CCCCCCCCCCOC(=O)Cn1c(COc2ccccc2OC)[n+](C)c2ccccc21.[Cl-]", "units": "%", "test value": -77.3}
{"molecule": "CC(C)CCN1CCN(Cc2c(F)cccc2Cl)CC1CCO (stereo not drawn)", "units": "%", "test value": -21.6}
{"molecule": "O=C(CCN1CCN(c2ccccc2)CC1)NNC(=O)Cc1ccccc1Cl", "units": "%", "test value": 5.76}
{"molecule": "O=C(CSc1nnc(CNc2ccccc2)o1)N1CCN(C(=O)c2ccco2)CC1", "units": "%", "test value": -17.3}
{"molecule": "COc1ccccc1N1CCN(C(=O)CCC(=O)N2CCN(c3ccc(F)cc3)CC2)CC1", "units": "%", "test value": -17}
{"molecule": "O=C(CSc1nnc(CNc2ccc(F)cc2)o1)N1CCN(C(=O)c2ccco2)CC1", "units": "%", "test value": -50.8}
{"molecule": "Cc1ccc(C(=O)Nc2ccc3cn[nH]c3c2)cc1S(=O)(=O)N1CCOCC1", "units": "%", "test value": -8.78}
{"molecule": "COc1ccccc1N1CCN(C(=O)C(CC(C)C)NC(=O)C2CCCCC2)CC1 (stereo not drawn)", "units": "%", "test value": -16.6}
{"molecule": "O=C(CSc1nnc(COc2cccc3ccccc23)o1)N1c2ccccc2CCc2ccccc21", "units": "%", "test value": 7.68}

----------
target: human ether-à-go-go-related gene (hERG) potassium channel (human); experiment: primary screen, population patch clamp on CHO cells stably expressing hERG; higher = less effect of the substance;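 further: peak tail current of the secondary pulse compared with the same well before compound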
In all, about 310,000 compounds went through this assay and about 14,000 (4.5%) showed an effect of 50% or more. The effect is printed as a negative number. The sample as a whole holds a higher share of strong results than the screen did.
Parameter hERG current change (%, negative = inhibition) at 10uM: see the listing below.
readout type: hERG current change (%, negative = inhibition) at 10uM (%)

{"compound": "COc1cccc(OC)c1C(=O)N1CCN(c2ccccn2)CC1", "measurement target": "human ether-à-go-go-related gene (hERG) potassium channel (human)", "test value": 11}
{"compound": "O=C(CSC(=S)N1CCCC1)c1ccccc1", "measurement target": "human ether-à-go-go-related gene (hERG) potassium channel (human)", "test value": 4.99}
{"compound": "COc1cc(/C=C(\\C#N)C(=O)Nc2cccc(C(=O)O)c2)ccc1OCc1ccc(F)cc1", "measurement target": "human ether-à-go-go-related gene (hERG) potassium channel (human)", "test value": 22.6}
{"compound": "CCOC(=O)c1c(C)[nH]c(C(=O)OC(C)C(=O)NCc2ccccc2)c1C (stereo not shown)", "measurement target": "human ether-à-go-go-related gene (hERG) potassium channel (human)", "test value": 17.4}
{"compound": "Cc1cc(C(=O)N/N=C2/CC(C)CC(C)(C)C2)c(C)o1 (stereo not shown)", "measurement target": "human ether-à-go-go-related gene (hERG) potassium channel (human)", "test value": -8.27}
{"compound": "Cc1ccn2c(=O)nc(SCC(=O)N3N=C(c4cccs4)CC3c3ccc(F)cc3)nc2c1 (stereo not shown)", "measurement target": "human ether-à-go-go-related gene (hERG) potassium channel (human)", "test value": -65}
{"compound": "CNC(=O)c1ccccc1S(=O)c1ccccc1C#N (stereo not shown)", "measurement target": "human ether-à-go-go-related gene (hERG) potassium channel (human)", "test value": 2.49}
{"compound": "CCN1CCCC1CNC(=O)c1ccc(Sc2ccccc2Cl)c([N+](=O)[O-])c1 (stereo not shown)", "measurement target": "human ether-à-go-go-related gene (hERG) potassium channel (human)", "test value": -64.1}
{"compound": "O=C(NCCCN1CCOCC1)c1ccc(Sc2ccc(F)cc2)c([N+](=O)[O-])c1", "measurement target": "human ether-à-go-go-related gene (hERG) potassium channel (human)", "test value": -33.3}
{"compound": "O=C(NCCCN1CCOCC1)c1ccc(Sc2ccccc2Cl)c([N+](=O)[O-])c1", "measurement target": "human ether-à-go-go-related gene (hERG) potassium channel (human)", "test value": -22.7}
{"compound": "CC1=CCC(C(=O)O)C(C(=O)Nc2ccc(-c3nc4ccc(C)cc4s3)cc2)C1 (stereo not shown)", "measurement target": "human ether-à-go-go-related gene (hERG) potassium channel (human)", "test value": 7.8}
{"compound": "CC(=O)/C(N=Nc1nc2c([nH]1)c(=O)n(C)c(=O)n2C)=C(\\C)O", "measurement target": "human ether-à-go-go-related gene (hERG) potassium channel (human)", "test value": 13.2}
{"compound": "Cc1c(C(=O)N2CCN(c3ccccn3)CC2)oc2ccccc12", "measurement target": "human ether-à-go-go-related gene (hERG) potassium channel (human)", "test value": -28}
{"compound": "CCn1c(SCC(=O)Nc2cccc(NC(C)=O)c2)nnc1-c1ccco1", "measurement target": "human ether-à-go-go-related gene (hERG) potassium channel (human)", "test value": 14.8}
{"compound": "CCCCc1nnc(NC(=O)CSCc2cc(=O)n3cc(C)sc3n2)s1", "measurement target": "human ether-à-go-go-related gene (hERG) potassium channel (human)", "test value": 5.31}
{"compound": "CCOC(=O)c1cnc(SCC(=O)N2CCN(C(=O)c3ccco3)CC2)nc1N", "measurement target": "human ether-à-go-go-related gene (hERG) potassium channel (human)", "test value": -29.3}
{"compound": "O=C1C2C3C=CC(C4CC34)C2C(=O)N1/N=C/c1ccc(-c2ccc(Cl)cc2[N+](=O)[O-])o1 (stereo not shown)", "measurement target": "human ether-à-go-go-related gene (hERG) potassium channel (human)", "test value": -13.5}
{"compound": "O=C(Nc1c(C(=O)N2CCN(c3ccccn3)CC2)oc2ccccc12)c1cccc([N+](=O)[O-])c1", "measurement target": "human ether-à-go-go-related gene (hERG) potassium channel (human)", "test value": -48.8}
{"compound": "COc1cccc(OC)c1C(=O)Nc1c(C(=O)N2CCN(C)CC2)oc2ccccc12", "measurement target": "human ether-à-go-go-related gene (hERG) potassium channel (human)", "test value": -29.1}
